The origin of these recorded values is PubChem BioAssay (NCATS).

Reported max response values are given for each entry in this list.
System: KB-3-1
Test: Cytotoxic Profiling of Annotated Libraries Using Quantitative High-Throughput Screening (AID 1296008); further: on the % scale 0 is the no-effect control and ±100 the full control effect; nearly all actives have a fitted effect of over 60% in size
Conditions: Five cell lines viability, CellTiter-Glo ATP luminescence, 48-72 h; stronger effect = lower value
Procedure: Cell-based phenotypic screening is a commonly used approach to discover biological pathways, novel drug targets, chemical probes and high-quality hit-to-lead molecules. […] A pintool (Kalypsys) was used to transfer 23 nL of compound solution to the 1536-well assay plates. […] Plates were left at room temperature for 10 min before imaging the ATP-coupled luminescence using a ViewLux microplate imager (PerkinElmer, Waltham, MA).
Results filed as inconclusive are left out.
Record the value in %, omitting the unit from your answer.

compound=O=C(NCC1CCOCC1)c1cnc(Nc2ccc(Cl)cc2Cl)nc1C(F)(F)F readout="max response" value_observed=-20.4
compound="NC(=O)CN1CC(O)CC1=O (centres undefined)" readout="max response" value_observed=3.82
compound=CSCC[C@@H](NC(=O)[C@@H](Cc1ccccc1)NC(=O)CNC(=O)CNC(=O)[C@@H](N)Cc1ccc(O)cc1)C(=O)O readout="max response" value_observed=3.04

Qu. Requested field: max response. Item: NC1CC1c1ccccc1 (centres undefined)
Ans. 5.36

Qu. Which value of max response has been reported for Cc1cc(O)ccc1Cl in the records?
Ans. -3.49

Qu. // lookup max response for CC1(C)CC/C(=C/c2ccc(Cl)cc2)C1(O)Cn1cncn1 (centres undefined)
Ans. -19.8

Qu. Entry under review: Clc1ccccc1C(c1ccccc1)(c1ccccc1)n1cccn1 . Reported max response?
Ans. 9.15

====

tested on: HB3; assay: qHTS profiling for inhibitors of Plasmodium falciparum proliferation (AID 504749); further: nearly all actives have a fitted effect of over 60% in size; further: potency means the concentration at half of the fitted maximal effect; conditions: P. falciparum in erythrocytes, SYBR Green DNA, 72 h; series mostly up to 28.7 µM
Inconclusive results are not listed. Calls of active or inactive are those of the source. Calls follow the shape of the dose curve; as a rule, active = well fitted inhibition curve with a large enough effect; inconclusive = small, poorly fitted or top-dose-only effect; inactive = flat fitted curve, though single readings scatter.
readout: Potency

compound=CC(=O)OCC1=C(C(=O)O)N2C(=O)[C@@H](N)[C@@H]2SC1 tested_target=HB3 readout=Potency value_observed=inactive
compound="C#CC1(O)CCC2C3CCC4=CC(=O)CCC4(C)C3CCC21C (stereo not given)" tested_target=HB3 readout=Potency value_observed=inactive
compound=O=C(O)C(Cl)Cl tested_target=HB3 readout=Potency value_observed=inactive
compound=O=[N+]([O-])c1ccc([As](=O)(O)O)cc1 tested_target=HB3 readout=Potency value_observed="12.6 µM (active)"
compound="CCCCCCCCCC(CC)c1ccc(S(=O)(=O)O)cc1 (stereo not given)" tested_target=HB3 readout=Potency value_observed=inactive

Qu. Query Potency on HB3 for CC(=O)[O][Hg][c]1ccccc1
Ans. 6.31 µM (active)

Qu. # value lookup — system HB3, readout Potency, item O=C(O)COc1ccccc1
Ans. inactive

Qu. Param readout= Potency; system= HB3; entry= C1CCC(NC2CCCCC2)CC1 ; returns value.
Ans. inactive

Qu. Write down the reported Potency of C=CCN1CC[C@]23CCCCC2[C@H]1Cc1ccc(O)cc13 (stereo not given in full) , test system: HB3.
Ans. inactive

Qu. Query the reported Potency for HB3; item: NC(=O)CN1CC(O)CC1=O (stereo not given)
Ans. inactive

====

target: Bile acid receptor (Homo sapiens) (UniProt Q96RI1); test: qHTS assay for small molecule agonists of farnesoid X receptor signaling (AID 588527); details: HEK293T FXR-UAS-bla, beta-lactamase ratio, 16 h; stronger effect = higher value;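 further: 0% = vehicle basal and 100% = reference agonist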
Sequence (Q96RI1 whole entry, looked up): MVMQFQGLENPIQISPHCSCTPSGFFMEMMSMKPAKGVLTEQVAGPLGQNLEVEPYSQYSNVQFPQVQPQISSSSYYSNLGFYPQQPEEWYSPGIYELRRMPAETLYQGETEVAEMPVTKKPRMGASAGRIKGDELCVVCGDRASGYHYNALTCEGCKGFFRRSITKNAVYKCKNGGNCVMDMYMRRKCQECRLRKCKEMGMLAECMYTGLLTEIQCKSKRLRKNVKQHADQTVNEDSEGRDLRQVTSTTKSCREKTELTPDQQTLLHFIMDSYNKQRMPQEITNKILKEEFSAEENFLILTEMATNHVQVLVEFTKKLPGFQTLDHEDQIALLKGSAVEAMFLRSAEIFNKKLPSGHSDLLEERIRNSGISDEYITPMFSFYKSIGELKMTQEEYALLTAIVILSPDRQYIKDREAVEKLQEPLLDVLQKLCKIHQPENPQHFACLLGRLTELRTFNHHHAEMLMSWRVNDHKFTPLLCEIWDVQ
Inconclusive results are not listed.
Readings of activation for the listed compounds
Kindly answer with a numeric value in %, unit omitted.

Some entries whose results are on file:
compound="C1=CC2C3C=CC(C3)C2C1 (stereo not drawn)" readout=activation value_observed=-0.353
compound=O=[N+]([O-])c1c(Cl)c(Cl)cc(Cl)c1Cl readout=activation value_observed=-1.27
compound=Nc1ccc(Cl)cc1N readout=activation value_observed=0.723
compound=COC(=O)c1c(Cl)c(Cl)c(C(=O)OC)c(Cl)c1Cl readout=activation value_observed=2.52
compound=CS(=O)(=O)c1ccc(C(=O)C2C(=O)CCCC2=O)c([N+](=O)[O-])c1 readout=activation value_observed=-1.16

Qu. What does the data say about its activation? Entry: O=C(O)COc1nc(Cl)c(Cl)cc1Cl
Ans. -0.709

Qu. Fill blank: measured activation of the compound Nc1ccc([N+](=O)[O-])cc1 is ____.
Ans. -1.05

Qu. Value lookup for activation; key = Clc1cnc(Oc2ccc(Oc3ncc(Cl)cc3Cl)cc2)c(Cl)c1
Ans. 0.177
